# System: Plasmodium
# EXPERIMENT SUMMARY: Antiplasmodial activity against Plasmodium
# Assay type: functional
ENDPOINT NAME: pEC50
Give bare numbers, as −log10 of the molar value.

response.value for Cc1c(CCO)sc[n+]1CCCCCCCCCCCC[n+]1csc(CCO)c1C.[I-].[I-] (field: pEC50) = 8.70

---

# EXPERIMENT SUMMARY: Half life in po dosed Sprague-Dawley rat by LC/MS/MS analysis
# Type: ADME, organism-based
# CONDITIONS: in vivo
ENDPOINT NAME: half-life (h)
Numbers only, in h.

response.value for CCc1nc(N)nc(N)c1OCCCOc1ccccc1CCC(=O)O.Cl (field: half-life) = 7.3

Data origin, for the record: ChEMBL document CHEMBL2385043
